- STUDY TARGET: SA variant RBD (R319-F541 with K417N, E484K, N501Y), C-terminal 6-His (SARS-CoV-2, UniProt P0DTC2 319-541)
- ASSAY: lateral flow NC50, RBD-AuNP vs immobilised ACE2
Field 'label' (enum: rule met / rule not met). Set to rule met when IC50 is strictly under 1 µg/mL; else rule not met.

Example entries and their recorded answers appear below.
1035740 (antibody, V domains shown) VH: EVLLQQSGPELVKPGASVKIPCKASGYTFTDYNMDWVKQSHGKSLEWIGDINPNNGFTIYNQKFKGKATLTVDKSSSTAYMELRSLTSEDTAVYYCAREGYGNYFDYWGQGTTLTVSS VL: DVLLTQSPAILSVSPGERVSFSCRASQSIGTSLHWYQQRTNGSPRLLIKYVSESISGIPSRFSGSGSGTDFTLSINSVESEDIADYYCQQSSSWPTTFGAGTKLELK : rule not met
1035709 (antibody, V domains shown) VH: EVQLQQSGPELVKPGASVKISCKTSGYTFTEYTMHWVKQSHGKSLEWIGGINPNIVDTGYNQKFKGKATLTVDKSSSTAYMELRSLTSEDSAVYYCARDGYPLYYAMDYWGQGTSVTVSS VL: DIQMTQSPSSLSASLGERVSLTCRASQEISGYLSWLQQKPDGTIKRLIYAASTLDSGVPKRFSGSRSGSDYSLTISSLESEDFADYYCLQYASYPWTFGGGTKLEIK : rule met
1035762 (antibody, V domains shown) VH: EVQLQQSGPELVKPGASVKISCKTSGYTFTEYTMHWVKQSHGKSLEWIGGINPNNGDTGYNQKFKGKATLTVDKSSSTAYMELRSLTFEDSAVYYCARDGYPLYYAMDYWGQGTSVTVSS VL: DIQMTQSPSSLSASLGERVSLTCRASQEISGYLCWLQQKPDGTIKRLIYAASTLDSAVPKRFSGSRSGSDYSLTISSLESEDFADFYCLQYASYPWTFGGGTKLEIK : rule met
1035224 (antibody, V domains shown) VH: EVQLQQSGAEFVRPGALVKLSCKASGFNIKDDYMHWVKQRPEQGLEWIGWIDPENGNSIYDPKFQGKASITADTSSNTAYLQLSSLTSEDTAVYYCARGEYFGSGSFAYWGQGTLVTVSA VL: QIVLTQSPAIMSASPGEKVTISCSASSSVSYMYWYQQKPGSSPKPWIYRTSNLASGVPARFSGSGSGTSYSLTISSMEAEDAATYYCQQYHSYPYMYTFGGGTKLEIK : rule not met
1035419 (antibody, V domains shown) VH: QVQLKQSGAELVRPGASVKLSCKTSGYIFTSYWIHWIKQRSGQGLEWIARIYPGTGSTYNNEKFKGKATLTADKSSSTAYMQLSSLKSEDSAVYFCARGEDNLYFYAMDYWGQGTSVTVSS VL: NIVLTQSPASLAVSLGQRATISCRASESVDSYGASFMHWCQQKPGQPPKLLIYLASNLESGVPARFSGSGSRTDFTLTIDPVEADDAATYYCQQNYEDPWTFGGGTKLEIK : rule not met

Kindly review the next binder as well.
IC50 strictly < 1 µg/mL for this binder? 1035753 (antibody, V domains shown) VH: EVQLQQSGAELVRPGALVKLSCKASGFNIKDYYMHWVKQRPEQGLEWIGWIDPENGNTIYDPKFLGKASITADTSSNTAYLQLSSLTSEDTAVYYCARWYYYAMDSWGQGTSVTVSS VL: DIQMTQTTSSLSASLGDRVTISCSASQGISNYLNWYQQKPDGTVKLLIYYTSSLHSGVPSRFSGSGSGTDYSLTISNLEPEDIATYYCQQYSKLPFTFGGGTNLEMK
rule not met
